tested-system: T1, human PD-L1 on cells (PHA-activated human T cells); PD-L1-transfected CHO-S cells; A375 melanoma cells; … (human, UniProt Q9NZQ7 19-290)
T1 construct: whole, on cells; also called PD-L1 expressing T cells; PD-L1 expressing CHO-S cells
T1 sequence (Q9NZQ7 19-290): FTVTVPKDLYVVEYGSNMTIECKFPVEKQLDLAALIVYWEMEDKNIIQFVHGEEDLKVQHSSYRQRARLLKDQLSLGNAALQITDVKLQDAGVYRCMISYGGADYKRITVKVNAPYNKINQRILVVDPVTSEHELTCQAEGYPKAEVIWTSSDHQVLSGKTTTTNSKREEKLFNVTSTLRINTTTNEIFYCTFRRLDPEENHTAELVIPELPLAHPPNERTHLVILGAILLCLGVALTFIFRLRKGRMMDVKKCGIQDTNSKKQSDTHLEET
measurement-description: flow cytometry on NCI-H292 human NSCLC cells, biotin-labeled anti-human IgG Fcγ and streptavidin-PE, MFI
Provide the reported EC50 (read off the curve) of each item.

Known EC50 (read off the curve) results, listed for orientation:
PL2#3 mtIgG1 (N297A) (antibody, V domains shown, N297A mutant of human IgG1 Fc backbone) VH: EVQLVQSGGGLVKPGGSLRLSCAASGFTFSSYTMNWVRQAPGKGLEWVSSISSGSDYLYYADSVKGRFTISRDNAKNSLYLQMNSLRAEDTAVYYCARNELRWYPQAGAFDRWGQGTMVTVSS VL: QSVVTQPPSMSAAPGQRVTISCSGSSSYIESSYVGWYQQLPGTAPRLLIYDDDMRPSGIPDRFSGSKSGTSATLAITGLQTGDEADYYCEIWRSGLGGVFGGGTKLTVLS | ~0.01 µg/mL
PL3#7-19 mtIgG1 (antibody, V domains shown, Antibody was biotinylated (NHS-PEG4-biotin, sites not specified) for the Octet assay of Table 11., N297A mutant human IgG1; also called PL3#7-19 parental mtIgG1) VH: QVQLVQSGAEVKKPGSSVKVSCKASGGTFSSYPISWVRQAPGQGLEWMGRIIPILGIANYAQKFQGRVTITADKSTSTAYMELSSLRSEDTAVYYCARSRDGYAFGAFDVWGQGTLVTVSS VL: QSVVTQPPPVSGAPGQRVTISCTGSSSNIGGGYDVHWYQQLPGTAPKLLIYGNSTRPSGVPDRFSGSKSGTSASLAITGLQAEDEADYYCQTYDSSLSATVVFGGGTKLTVLG | ~0.02 µg/mL

The record that follows has no EC50 (read off the curve) shown yet.
# EC50 (read off the curve) of anti-PD-L1 ref-2 (IgG2) (antibody, V domains shown) VH: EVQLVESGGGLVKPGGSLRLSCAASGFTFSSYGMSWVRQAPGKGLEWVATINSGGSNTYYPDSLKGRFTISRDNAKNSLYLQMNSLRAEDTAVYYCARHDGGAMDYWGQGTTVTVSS VL: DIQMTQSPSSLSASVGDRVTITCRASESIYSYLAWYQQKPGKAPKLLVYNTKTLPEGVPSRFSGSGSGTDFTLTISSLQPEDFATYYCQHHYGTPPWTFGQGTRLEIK = ~0.01 µg/mL

Data credit: patent US20190225691A1
